- measured_on: Gal(b1-3)GlcNAc
- experimental_details: glycan array binding signal (z-score within array); higher = stronger binding
- condition_details: glycan notation: IUPAC condensed, linker removed
The entries come from a sample that favours the strongest signals as a whole.

- binder: "SP15308A-bot-339-19-339 (Bacteroides ovatus) (protein) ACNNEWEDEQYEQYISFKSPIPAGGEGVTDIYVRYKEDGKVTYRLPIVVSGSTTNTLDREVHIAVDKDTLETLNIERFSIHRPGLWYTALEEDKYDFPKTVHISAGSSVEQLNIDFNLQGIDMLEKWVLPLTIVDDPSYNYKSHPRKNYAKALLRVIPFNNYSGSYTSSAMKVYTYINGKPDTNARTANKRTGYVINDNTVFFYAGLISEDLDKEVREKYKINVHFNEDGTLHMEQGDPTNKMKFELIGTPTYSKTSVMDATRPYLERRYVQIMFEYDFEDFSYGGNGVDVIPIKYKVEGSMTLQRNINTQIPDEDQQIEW"
  glycan array binding signal (z-score): 0.061

Data provenance is the supplement of paper PMC8728848.
